Each recorded value in this set is attributed to ChEMBL document CHEMBL1144973.

Protein target, amino acids: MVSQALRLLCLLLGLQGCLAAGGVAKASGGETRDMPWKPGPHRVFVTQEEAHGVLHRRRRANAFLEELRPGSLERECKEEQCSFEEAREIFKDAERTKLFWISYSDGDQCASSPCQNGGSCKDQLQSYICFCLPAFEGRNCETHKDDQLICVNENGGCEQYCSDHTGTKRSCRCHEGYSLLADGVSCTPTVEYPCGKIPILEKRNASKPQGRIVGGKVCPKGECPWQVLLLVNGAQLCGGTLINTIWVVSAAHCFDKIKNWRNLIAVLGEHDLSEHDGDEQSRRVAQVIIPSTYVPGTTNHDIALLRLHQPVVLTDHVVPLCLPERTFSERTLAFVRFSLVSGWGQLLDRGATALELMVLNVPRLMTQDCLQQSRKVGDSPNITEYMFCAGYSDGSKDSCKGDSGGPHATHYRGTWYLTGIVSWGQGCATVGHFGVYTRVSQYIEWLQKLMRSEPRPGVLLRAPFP
endpoint name: pKi
Please report pKi as the negative decimal logarithm of the molar concentration, giving only the number.

Study these solved cases before continuing.
[
  {
    "compound": "C[C@H](NC(=O)Nc1ccc(C(=N)N)cc1)C(=O)NCc1ccc(Cl)c(Cl)c1",
    "pKi": 4.34
  },
  {
    "compound": "CC(NC(=O)CNC(=O)Nc1ccc(C(=N)N)c(F)c1)c1ccc2c(c1)NC(=O)CO2 (centres undefined)",
    "pKi": 6.33
  },
  {
    "compound": "C[C@H](NC(=O)CNC(=O)Nc1ccc(C(=N)N)cc1)c1ccc2c(c1)OCCO2",
    "pKi": 7.17
  }
]

Consider now this further compound.
Return pKi (reported value) for this compound: C[C@H](NC(=O)CNC(=O)Nc1ccc(C(=N)N)cc1)c1cccc(Br)c1
7.57

----------
Target: Coagulation factor X (Homo sapiens)
Sequence (P00742 41-179 limits assumed): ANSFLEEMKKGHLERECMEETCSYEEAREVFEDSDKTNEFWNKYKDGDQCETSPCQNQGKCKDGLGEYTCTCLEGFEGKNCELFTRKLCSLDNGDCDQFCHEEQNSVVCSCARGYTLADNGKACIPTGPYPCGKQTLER
Sequence (P00742 235-488 limits assumed): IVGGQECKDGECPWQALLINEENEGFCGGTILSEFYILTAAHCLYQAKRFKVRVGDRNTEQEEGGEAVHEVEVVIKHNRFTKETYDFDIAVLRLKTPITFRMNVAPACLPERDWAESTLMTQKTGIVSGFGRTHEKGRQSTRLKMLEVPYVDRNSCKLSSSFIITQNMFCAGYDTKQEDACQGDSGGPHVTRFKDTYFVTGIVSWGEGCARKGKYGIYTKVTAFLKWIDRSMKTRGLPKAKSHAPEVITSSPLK
pKi: −log10 of the molar value.
endpoint name: pKi

Study these solved cases before continuing.
[
  {
    "molecule": "CC(NC(=O)CNC(=O)Nc1ccc(C(=N)N)cc1)c1ccc2c(c1)NC(=O)CO2 (stereo unspecified)",
    "measured target": "Coagulation factor X (Homo sapiens)",
    "pKi": "< 5.00"
  },
  {
    "molecule": "N=C(N)c1ccc(NC(=O)NCC(=O)NCc2ccc(Cl)c(Cl)c2)cc1",
    "measured target": "Coagulation factor X (Homo sapiens)",
    "pKi": 4.84
  },
  {
    "molecule": "N=C(N)c1ccc(NC(=O)NCC(=O)NCc2cccc(Br)c2)cc1",
    "measured target": "Coagulation factor X (Homo sapiens)",
    "pKi": 5.11
  },
  {
    "molecule": "C[C@H](NC(=O)CNC(=O)Nc1ccc(C(=N)N)cc1)c1ccc2c(c1)OCCO2",
    "measured target": "Coagulation factor X (Homo sapiens)",
    "pKi": "< 5.00"
  },
  {
    "molecule": "C[C@H](NC(=O)CNC(=O)Nc1ccc(C(=N)N)cc1)c1cccc(Br)c1",
    "measured target": "Coagulation factor X (Homo sapiens)",
    "pKi": "< 5.00"
  }
]

Consider now this further molecule.
Give pKi only, for C[C@@H](NC(=O)CNC(=O)Nc1ccc(C(=N)N)cc1)c1ccccc1 , using Coagulation factor X (Homo sapiens) data.
< 5.00
